System under test: human CysLT1 receptor (Homo sapiens)
Sequence (Q9Y271 whole entry): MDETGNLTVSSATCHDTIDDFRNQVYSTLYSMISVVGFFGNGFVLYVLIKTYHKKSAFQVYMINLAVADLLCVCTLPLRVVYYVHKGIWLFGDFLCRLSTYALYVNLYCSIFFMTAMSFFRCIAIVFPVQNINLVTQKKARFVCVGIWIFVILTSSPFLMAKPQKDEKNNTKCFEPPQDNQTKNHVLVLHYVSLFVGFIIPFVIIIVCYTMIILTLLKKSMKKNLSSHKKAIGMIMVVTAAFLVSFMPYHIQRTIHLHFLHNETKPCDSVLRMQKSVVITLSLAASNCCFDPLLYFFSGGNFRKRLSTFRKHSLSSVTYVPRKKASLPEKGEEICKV
Test protocol: Antagonism of LTD4-induced increase in intracellular calcium within a CysLT1 receptor expressing cell line (FLIPR)
Test context: AV12-664 cells expressing human CysLT1; 6 nM LTD4; read-out: antagonism of CysLT1 receptors, IC50
Measurement name: IC50

In: For "CC(=O)c1ccc(OCc2ccc(Oc3cc(-c4nn[nH]n4)ccn3)cc2)c(C)c1O" , what is its reported IC50?
Out: < 150 nM

In: For "CCCc1c(OCc2cccc(Sc3cc(C(=O)O)ccn3)c2)ccc(C(C)=O)c1O" , what is its reported IC50?
Out: < 150 nM

In: For "CC(=O)c1ccc(OCc2cccc(Oc3cc(-c4nn[nH]n4)ccn3)c2)c(C(F)(F)F)c1O" , what is its reported IC50?
Out: < 150 nM
